The reported numbers originate from BindingDB's records for doi:10.1016/s0196-9781(99)00098-4.

Sequence of the target: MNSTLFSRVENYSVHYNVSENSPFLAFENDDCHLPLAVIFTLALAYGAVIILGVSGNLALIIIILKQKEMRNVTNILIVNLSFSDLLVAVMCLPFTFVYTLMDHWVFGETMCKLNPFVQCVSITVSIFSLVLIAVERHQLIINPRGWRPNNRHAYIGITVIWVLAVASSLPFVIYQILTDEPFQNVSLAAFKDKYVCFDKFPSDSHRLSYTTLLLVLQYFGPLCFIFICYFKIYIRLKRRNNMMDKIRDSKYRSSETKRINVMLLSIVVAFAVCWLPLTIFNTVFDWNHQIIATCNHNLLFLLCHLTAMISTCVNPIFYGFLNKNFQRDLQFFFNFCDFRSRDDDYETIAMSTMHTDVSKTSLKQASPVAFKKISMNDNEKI

| compound | units label | Ki |
| --- | --- | --- |
| CN(C)CC1CCC(CN=C(N)c2ccc(CC(NC(=O)C(Cc3ccccc3)NS(=O)(=O)c3ccc4ccccc4c3)C(=O)N3CCCC3)cc2)CC1 (stereo unspecified) [CAS_5312150] | nM | 1.3 |

###

system name: Neuropeptide Y receptor type 1 (Rattus norvegicus)
pKi: −log10 of the molar value.

| substance | pKi |
| --- | --- |
| H-INPIYRLRY-NH2 [NPY 28-36, [P30, Y32, L34]] | 8.85 |

###

system name: Neuropeptide Y receptor type 1 (Cavia porcellus, UniProt Q9WVD0)
Sequence (Q9WVD0 whole entry): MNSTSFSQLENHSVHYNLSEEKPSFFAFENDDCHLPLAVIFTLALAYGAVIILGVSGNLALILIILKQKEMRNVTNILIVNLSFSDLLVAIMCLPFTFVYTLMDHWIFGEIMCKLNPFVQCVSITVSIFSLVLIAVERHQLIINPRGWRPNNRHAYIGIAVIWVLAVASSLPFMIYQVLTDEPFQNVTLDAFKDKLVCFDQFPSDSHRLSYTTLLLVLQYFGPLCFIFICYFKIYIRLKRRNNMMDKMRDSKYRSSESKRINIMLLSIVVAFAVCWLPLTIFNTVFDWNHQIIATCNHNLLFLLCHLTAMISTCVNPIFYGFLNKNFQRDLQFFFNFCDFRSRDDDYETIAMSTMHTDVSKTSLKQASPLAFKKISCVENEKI
pKi: −log10 of the molar value.
experimental endpoint: pKi

| substance | observed result |
| --- | --- |
| H-INPIYRLRY-NH2 [NPY 28-36, [P30, Y32, L34]] | 8.62 |
